Assay Remarks: activity coefficient (dimensionless); of the first substance listed, at infinite dilution; xn = mol fraction of the nth substance listed
Condition Parameters: 308.15 K; 101 kPa; Liquid; Chromatography; x1 = 0
Quick list: activity coefficient per entry.

Known results for compounds:
| Compound | activity coefficient |
| --- | --- |
| Cc1ccccc1 [toluene] + CCCCCCOCn1cc[n+](COCCCCCC)c1.O=S(=O)([N-]S(=O)(=O)C(F)(F)F)C(F)(F)F | 0.743 |
| C#CCCCCC [1-heptyne] + CCCCCCOCn1cc[n+](COCCCCCC)c1.O=S(=O)([N-]S(=O)(=O)C(F)(F)F)C(F)(F)F | 1.38 |
| CCCCCCCC [octane] + CCCCCCOCn1cc[n+](COCCCCCC)c1.O=S(=O)([N-]S(=O)(=O)C(F)(F)F)C(F)(F)F | 4.62 |

QUERY: Item under review: C#CCCCC [1-hexyne] + CCCCCCOCn1cc[n+](C)c1.O=S(=O)([N-]S(=O)(=O)C(F)(F)F)C(F)(F)F . Reported activity coefficient?
RESULT: 1.94

QUERY: Item under review: CCCCC [pentane] + CCCCCCOCn1cc[n+](COCCCCCC)c1.O=S(=O)([N-]S(=O)(=O)C(F)(F)F)C(F)(F)F . Reported activity coefficient?
RESULT: 2.69

QUERY: Item under review: CC(C)=O [acetone] + CCCCCCOCn1cc[n+](COCCCCCC)c1.O=S(=O)([N-]S(=O)(=O)C(F)(F)F)C(F)(F)F . Reported activity coefficient?
RESULT: 0.267

QUERY: Item under review: C1CCCC1 [cyclopentane] + CCCCCCOCn1cc[n+](COCCCCCC)c1.O=S(=O)([N-]S(=O)(=O)C(F)(F)F)C(F)(F)F . Reported activity coefficient?
RESULT: 1.78

QUERY: Item under review: C#CCCC [1-pentyne] + CCCCCCOCn1cc[n+](COCCCCCC)c1.O=S(=O)([N-]S(=O)(=O)C(F)(F)F)C(F)(F)F . Reported activity coefficient?
RESULT: 0.997

QUERY: Item under review: C1CCCCCC1 [cycloheptane] + CCCCCCOCn1cc[n+](C)c1.O=S(=O)([N-]S(=O)(=O)C(F)(F)F)C(F)(F)F . Reported activity coefficient?
RESULT: 6.15

QUERY: Item under review: C=CCCCCCC [oct-1-ene] + CCCCCCOCn1cc[n+](COCCCCCC)c1.O=S(=O)([N-]S(=O)(=O)C(F)(F)F)C(F)(F)F . Reported activity coefficient?
RESULT: 3.2

QUERY: Item under review: CCCCCC [hexane] + CCCCCCOCn1cc[n+](C)c1.O=S(=O)([N-]S(=O)(=O)C(F)(F)F)C(F)(F)F . Reported activity coefficient?
RESULT: 7.96

QUERY: Item under review: CCCCCCC [heptane] + CCCCCCOCn1cc[n+](COCCCCCC)c1.O=S(=O)([N-]S(=O)(=O)C(F)(F)F)C(F)(F)F . Reported activity coefficient?
RESULT: 3.81

QUERY: Item under review: CCO [ethanol] + CCCCCCOCn1cc[n+](COCCCCCC)c1.O=S(=O)([N-]S(=O)(=O)C(F)(F)F)C(F)(F)F . Reported activity coefficient?
RESULT: 1.14

QUERY: Item under review: C1CCCCCCC1 [cyclooctane] + CCCCCCOCn1cc[n+](COCCCCCC)c1.O=S(=O)([N-]S(=O)(=O)C(F)(F)F)C(F)(F)F . Reported activity coefficient?
RESULT: 3.06

QUERY: Item under review: CC(C)=O [acetone] + CCCCCCOCn1cc[n+](C)c1.O=S(=O)([N-]S(=O)(=O)C(F)(F)F)C(F)(F)F . Reported activity coefficient?
RESULT: 0.308

QUERY: Item under review: C=CCCCCC [1-heptene] + CCCCCCOCn1cc[n+](C)c1.O=S(=O)([N-]S(=O)(=O)C(F)(F)F)C(F)(F)F . Reported activity coefficient?
RESULT: 5.96
